B1: TPR t1 (parent)
chain: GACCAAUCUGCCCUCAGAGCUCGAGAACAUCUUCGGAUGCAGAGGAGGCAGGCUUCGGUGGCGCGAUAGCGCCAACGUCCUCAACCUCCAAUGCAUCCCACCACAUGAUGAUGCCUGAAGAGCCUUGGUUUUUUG

# Variants of: B1
# testProtocol: polymerase ribozyme fitness, log enrichment relative to wild type (log ratio); higher = more active; in vitro selection for triplet polymerase activity
Please use T whenever polymerase ribozyme fitness (log ratio) is not below -2, and F whenever it is.

mutationDescriptor: C34U A84U U131G
label: F
--
mutationDescriptor: C13A C15G U106A G117C
label: T
--
mutationDescriptor: U81A
label: T

Exercise: Threshold query (polymerase ribozyme fitness (log ratio) >= -2) on G45U U96C
Key: T

Exercise: Threshold query (polymerase ribozyme fitness (log ratio) >= -2) on C3U G10U A41C C115U U126G
Key: F

Exercise: Threshold query (polymerase ribozyme fitness (log ratio) >= -2) on A2C C12G G69C G110U G128C
Key: F

Exercise: Threshold query (polymerase ribozyme fitness (log ratio) >= -2) on U55C A105G C123G
Key: T

Exercise: Threshold query (polymerase ribozyme fitness (log ratio) >= -2) on A90U U96C C115U
Key: T

Exercise: Threshold query (polymerase ribozyme fitness (log ratio) >= -2) on A6U G10U C13A C22A C49U G63A
Key: F

Exercise: Threshold query (polymerase ribozyme fitness (log ratio) >= -2) on A5G C13U G36C C62U C85A U112A G117U
Key: T

Exercise: Threshold query (polymerase ribozyme fitness (log ratio) >= -2) on C22A G57C G69U C76A
Key: F

Exercise: Threshold query (polymerase ribozyme fitness (log ratio) >= -2) on G44U G48U G57C C104A
Key: F

Exercise: Threshold query (polymerase ribozyme fitness (log ratio) >= -2) on U54C C115U
Key: T

Exercise: Threshold query (polymerase ribozyme fitness (log ratio) >= -2) on C53U U92A G113A G117A C124A
Key: F

Exercise: Threshold query (polymerase ribozyme fitness (log ratio) >= -2) on U21A A27C A46G C76G
Key: F

Exercise: Threshold query (polymerase ribozyme fitness (log ratio) >= -2) on C8G A29U G120U
Key: T

Exercise: Threshold query (polymerase ribozyme fitness (log ratio) >= -2) on A16U C56A G117U
Key: F

Exercise: Threshold query (polymerase ribozyme fitness (log ratio) >= -2) on G63A C82G
Key: T

Exercise: Threshold query (polymerase ribozyme fitness (log ratio) >= -2) on C8G G19A G69U C79U A111G U129C U133A
Key: T

Exercise: Threshold query (polymerase ribozyme fitness (log ratio) >= -2) on A43G G61A
Key: T

Exercise: Threshold query (polymerase ribozyme fitness (log ratio) >= -2) on G36A C64U C88U C101G
Key: T

Every entry's value here was drawn from the RNAGym collection of RNA variant scans (doi:10.1073/pnas.2313332121).
